# test_protocol: Antiproliferative activity against BAEC after 3 days by coulter counter analysis
# Assay type: functional
# protocol_conditions: Bos taurus, 72 h
pIC50: −log10 of the molar value.
# pIC50 values compiled below
parameter_measured: pIC50

molecule="COc1cccc(OC)c1NC(C)=C1C(=O)CC(c2ccccc2)CC1=O (stereo unspecified)" parameter_measured=pIC50 relation_qualifier== value=6.34
molecule="CCC(Nc1cccc(OC)c1)=C1C(=O)CC(c2ccccc2)CC1=O (stereo unspecified)" parameter_measured=pIC50 relation_qualifier== value=4.19
molecule="CCCC(Nc1ccccc1OC)=C1C(=O)CC(c2ccccc2)CC1=O (stereo unspecified)" parameter_measured=pIC50 relation_qualifier== value=4.80
molecule="COc1ccc(C2CC(=O)C(=C(C)Nc3ccccc3OC)C(=O)C2)cc1 (stereo unspecified)" parameter_measured=pIC50 relation_qualifier=< value=4.00
molecule="CCC(Nc1cccc(O)c1)=C1C(=O)CC(c2ccccc2)CC1=O (stereo unspecified)" parameter_measured=pIC50 relation_qualifier== value=5.11
molecule="COc1ccccc1NC(C)=C1C(=O)CC(Cc2ccccc2)CC1=O (stereo unspecified)" parameter_measured=pIC50 relation_qualifier=< value=4.00
molecule="CC(Nc1ccccc1C)=C1C(=O)CC(c2ccccc2)CC1=O (stereo unspecified)" parameter_measured=pIC50 relation_qualifier== value=6.77
molecule=COc1ccccc1NC(C)=C1C(=O)CC(C)(C)CC1=O parameter_measured=pIC50 relation_qualifier== value=4.32
molecule="CC(Nc1c(F)cccc1F)=C1C(=O)CC(c2ccccc2)CC1=O (stereo unspecified)" parameter_measured=pIC50 relation_qualifier== value=5.08
molecule="CCC(Nc1ccc(OC)cc1)=C1C(=O)CC(c2ccccc2)CC1=O (stereo unspecified)" parameter_measured=pIC50 relation_qualifier=≤ value=4.00
molecule="CCC(Nc1ccccc1)=C1C(=O)CC(c2ccccc2)CC1=O (stereo unspecified)" parameter_measured=pIC50 relation_qualifier== value=4.80

---

# test_protocol: Metabolic stability in 50% mouse liver extract assessed as compound remaining at 100 uM measured after 3 hrs by HPLC analysis
# Format: ADME, tissue-based
# protocol_conditions: 50% mouse liver extract, read-out: Stability
parameter_measured: remaining at 3 h, 100 µM

compound="COc1ccccc1NC(C)=C1C(=O)CC(c2ccccc2)CC1=O (stereo unspecified)" value="> 90%"

Data origin, for the record: ChEMBL document CHEMBL3259599
